Test system: Plasmodium berghei
ASSAY REMARKS: Luciferase/luciferin-expressing antifolate-resistant parasites were used to infect a culture of HepG2 cells that were pre-incubated with compounds. Infected hepatocytes emit light due to the luciferase reaction. Assay results are presented as the percent inhibition of light emission compared to control. […]
Assay type: functional
COND: sporozoite, HEPG2TOX_HILL_SLOPE 1.42, HEPG2TOX_R_SQUARED 0.867, PBLUC_HILL_SLOPE 1.9, PBLUC_R_SQUARED 0.651, read-out: LUCIFERASE INFECTION ASSAY - IC50
QUANTITY MEASURED: IC50 (µM)
Just the number in µM, nothing appended.

Report measured IC50; entry is CCOc1cccc(-c2cn3c(-c4cccc(O)c4)cnc3cn2)c1
3.05
